Values from patent US20260193326A1

Target: T1, AAV9 (adeno-associated virus 9)
T1 construct: also called adeno-associated virus serotype 9
Test: SPR, AAV amine-coupled to CM5 chip;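 further: nanobodies flowed as analyte at seven concentrations spanning 1–100 nM over immobilized AAV (500–800 RU), kinetic constants derived by fitting the binding curves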
binders and their reported kon
// note: answer is a bare numeric in M⁻¹ s⁻¹

# example entries with known answers
>  <binder>
A4-061 (VHH) VHH: VQLQESGGGLVQPGGSLRLSCAASGSRFSLNTMGWYRQAPGKQRELVATVTRGGSTNYANSVKGRFTISRDNAKNTVYLQMNSLRPEDTAVYYCHVDEVRQSTWTTSNLWGQGTQVTVSS

>  <unit_tag>
M⁻¹ s⁻¹

>  <kon>
4770

$$$$
>  <binder>
A4-068 (VHH) VHH: VQLQESGGGLVQTGGSLRLSCAASGRAFSLNTMGWYRQAPGKWRELVATVTRGGSTNYAGSVKGRFTISRDNAKNTVYLQMNNLRPEDTAVYYCHVDEVRESSWTTSNLWGQGTQVTVSS

>  <unit_tag>
M⁻¹ s⁻¹

>  <kon>
109000

$$$$
>  <binder>
A4-054 (VHH) VHH: VQLQESGGGLVQPGGSLRLSCAASGSAFSINTMGWYRQAPGKQRELVAAVTRGGSTNYADSVKGRFTISRDNAKNTVYLQMNSLRPEDTAVYYCHVDEVRQSSWTTSNLWGQGTQVTVSS

>  <unit_tag>
M⁻¹ s⁻¹

>  <kon>
8660

$$$$

Ask: GET /values?readout=kon&item= A4-069 (VHH) VHH: VQLQESGGGLVQPGGSLRLSCAASGSIFTINSMGWYRQAPGKWRELVATVTRGGNTNYANSVKGRFTISRDNAKNTVYLQMNTLRPEDTAVYYCHLDEVRDSSWTTSNLWGQGTQVTVSS
Result: 105000
